# Tested on: Fibroblast
# protocol-text: Multiplex assay against human fibroblast
# Format: toxicity, cell-based
# condition-info: 12 h, 10 µM, compound concentration 10 uM, replicate 2
Attribute: Population Healthy Nuclei (%)

C=CC(=O)Nc1cc(-n2c(=O)ccc3cnc4ccc(-c5ccc(NS(C)(=O)=O)cc5)cc4c32)ccc1C: 54%

For this molecule ( C[C@@H](Oc1cc(-n2cnc3ccc(CN4CCN(C)CC4)cc32)sc1C(N)=O)c1ccccc1C(F)(F)F [GSK-461364] ), measured Population Healthy Nuclei (%) is 55%

For this molecule ( CCCCCNC(=N)N/N=C/c1c[nH]c2ccc(OC)cc12.O=C(O)/C=C\C(=O)O [TEGASEROD MALEATE] ), measured Population Healthy Nuclei (%) is 3%

For this molecule ( Oc1cccc(-c2nc(N3CCOCC3)c3oc4ncccc4c3n2)c1 [PI-103] ), measured Population Healthy Nuclei (%) is 39%

For this molecule ( `c1ccc(-c2oc3ncnc(NC[C@@H]4CCCO4)c3c2-c2ccccc2)cc1` ), measured Population Healthy Nuclei (%) is 71%

For this molecule ( Cl.Cn1c2c(c3ccc(Cl)c(Cl)c31)C(C#N)C1(CCNCC1)NC2=O (centres undefined) ), measured Population Healthy Nuclei (%) is 39%

For this molecule ( `Cc1ccc(S(=O)(=O)NC2c3ccccc3Oc3ccccc32)cc1` ), measured Population Healthy Nuclei (%) is 34%

For this molecule ( CCOc1ccn(-c2ccc(F)cc2)c(=O)c1C(=O)Nc1ccc(Oc2ccnc(N)c2Cl)c(F)c1 [BMS-777607] ), measured Population Healthy Nuclei (%) is 36%

For this molecule ( CN1C(=O)[C@@H](NC(=O)c2cc3ccccc3[nH]2)N=C(c2ccccc2)c2ccccc21 [DEVAZEPIDE] ), measured Population Healthy Nuclei (%) is 75%

====

Attribute: Population Normal (%)
# System: U2OS
# protocol-text: Multiplex assay against U2OS
# Format: toxicity, cell-based
# condition-info: human, 24 h, 1 µM, compound concentration 1 uM, replicate 2
Use % as the unit, but write only the number.

Examples from the recorded data:
COc1cc(Nc2ccnc3ccc(Br)cc23)cc(OC)c1OC: 83
CN1C(=O)[C@@H](NC(=O)c2cc3ccccc3[nH]2)N=C(c2ccccc2)c2ccccc21 [DEVAZEPIDE]: 98
CCCc1cc(C)[nH]c(=O)c1CNC(=O)c1cc(-c2ccc(N3CCN(C(C)C)CC3)nc2)cc2c1cnn2C(C)C: 90

For this molecule ( `C[C@@H](Oc1cc(-n2cnc3ccc(CN4CCN(C)CC4)cc32)sc1C(N)=O)c1ccccc1C(F)(F)F` ), measured Population Normal (%) is 95

For this molecule ( Cl.Cn1c2c(c3ccc(Cl)c(Cl)c31)C(C#N)C1(CCNCC1)NC2=O (stereo not drawn) ), measured Population Normal (%) is 89

For this molecule ( CCCCCNC(=N)N/N=C/c1c[nH]c2ccc(OC)cc12.O=C(O)/C=C\C(=O)O [TEGASEROD MALEATE] ), measured Population Normal (%) is 94

For this molecule ( `Cc1ccc(S(=O)(=O)NC2c3ccccc3Oc3ccccc32)cc1` ), measured Population Normal (%) is 92

For this molecule ( `NC(=O)c1ccc2nc(-c3ccc(C4(N)CCC4)cc3)c(-c3ccccc3)n2n1` ), measured Population Normal (%) is 91

For this molecule ( `CCOc1ccn(-c2ccc(F)cc2)c(=O)c1C(=O)Nc1ccc(Oc2ccnc(N)c2Cl)c(F)c1` ), measured Population Normal (%) is 89

For this molecule ( `Cc1c(P(=S)(c2ccccc2)c2ccccc2)n2ccccc2[n+]1C/C=C/c1ccccc1.[Br-]` ), measured Population Normal (%) is 66

For this molecule ( `CCCCN(CC)c1nc(C)nc2c1c(C)cn2-c1c(C)cc(C)cc1C.Cl` ), measured Population Normal (%) is 94

For this molecule ( `CC[C@@H]1C(=O)N(C)c2cnc(Nc3ccc(C(=O)NC4CCN(C)CC4)cc3OC)nc2N1C1CCCC1` ), measured Population Normal (%) is 87

For this molecule ( `Cc1c(Nc2ccc(S(=O)(=O)N3CCN(C)CC3)cc2F)nc2ccc(Nc3cnn(C4CC4)c3)cn2c1=O` ), measured Population Normal (%) is 94

For this molecule ( `Cc1c(Nc2ccc(S(=O)(=O)N3CCN(C)CC3)cc2F)nc2ccc(-c3cnn(C4CC4)c3)cn2c1=O` ), measured Population Normal (%) is 96

For this molecule ( `CCOC(=O)CCNc1cc(N2CCc3ccccc3CC2)nc(-c2ccccn2)n1` ), measured Population Normal (%) is 89
